Data credit: PubChem BioAssay AID1159580

Experiment: chemical genetic growth profiling, strain panel (AID 1159580);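 note: tested at 20 µM; growth read once vehicle control cultures reached saturation at 30 °C; lower values mean less growth of the strain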
Conditions: S. cerevisiae deletion strains, growth OD, locus YJL187C, strain SWE1
Hit rate of the full screen: of about 5,500 compounds, about 2,000 (36%) were called active. About 18% were inconclusive and are not listed. Cut-off read from the data, not from the text of the source: active = normalized growth mostly below about 0.91 (no sharp cut-off); inconclusive = no clear call, values can overlap the other calls; inactive = mostly above about 0.92. The list shows a part of the results.
Field 'call' accepts y = active, n = inactive

Past entries and their recorded results:
| compound | answerLabel |
| --- | --- |
| CC(=O)O[C@@H]1c2c(ccc3ccc(=O)oc23)OC(C)(C)[C@@H]1OC(=O)CC(C)C | n |
| CC1(C)O[C@@H]2CC3C4C[C@H](F)C5=CC(=O)CC[C@]5(C)C4[C@@H](O)C[C@]3(C)[C@]2(C(=O)CO)O1 (stereo partly specified) | n |
| CC1(C)S[C@@H]2[C@H](NC(=O)C(C(=O)O)c3ccccc3)C(=O)N2[C@H]1C(=O)O (stereo partly specified) | n |

Inquiry: Check the results log: what was the call for N#CCCN1C(=O)C2(OCCO2)c2ccccc21 ?
Reply text: n

Inquiry: Check the results log: what was the call for CC12CCC(=O)C=C1CCc1ccccc12 (stereo unspecified) ?
Reply text: n

Inquiry: Check the results log: what was the call for C/C=C(\C)C(=O)O[C@@H]1c2c(ccc3ccc(=O)oc23)OC(C)(C)[C@@H]1OC(C)=O ?
Reply text: n

Inquiry: Check the results log: what was the call for Cc1nnsc1C(=O)O/N=C1/CCSc2ccc(F)cc21 ?
Reply text: n

Inquiry: Check the results log: what was the call for CC(C)Nc1nc(Cl)nc(NC(C)C)n1 ?
Reply text: n

Inquiry: Check the results log: what was the call for Cc1ncc(CO)c(CO)c1O ?
Reply text: n

Inquiry: Check the results log: what was the call for COC(=O)NC(=S)Nc1ccccc1NC(=S)NC(=O)OC ?
Reply text: n

Inquiry: Check the results log: what was the call for COc1cc(-c2cc(=O)c3c(O)c(OC)c(OC)c(OC)c3o2)cc(OC)c1OC ?
Reply text: n

Inquiry: Check the results log: what was the call for COC(CNc1cccc(Cl)c1C#N)OC ?
Reply text: n

Inquiry: Check the results log: what was the call for CC(C)(C)NCC(O)COc1cccc2c1CCCC2=O (stereo unspecified) ?
Reply text: n

Inquiry: Check the results log: what was the call for O=C(O)C1=CC(=C(c2ccc(O)c(C(=O)O)c2)c2ccc(O)c(C(=O)O)c2)C=CC1=O ?
Reply text: n

Inquiry: Check the results log: what was the call for O=C(Oc1cccc2cccnc12)c1ccccc1 ?
Reply text: n

Inquiry: Check the results log: what was the call for COC(OC)c1ccc(C#N)c(=S)[nH]1 ?
Reply text: n

Inquiry: Check the results log: what was the call for O=S(=O)(O)O ?
Reply text: n

Inquiry: Check the results log: what was the call for CCCc1nc(C)c2c(=O)[nH]c(-c3cc(S(=O)(=O)N4CCN(CC)CC4)ccc3OCC)nn12 ?
Reply text: n
